target entity: HaloTag-ING2 PHD (mouse Ing2 200-280)
assay details: peptide microarray binding signal (635 nm), min-max normalized on array (fraction of array maximum); higher = stronger binding
condition info: peptide region: Unmod H2A variant; binder concentration: 100 nM
Each entry falls into one class according to its peptide microarray binding signal; the ranges are low end: < 0.008; middle: ≥ 0.008 and < 0.02; high end: ≥ 0.02

{"binder": "GNASRDNKKTRII [Unmod H2A variant G N A S R D N K K T R I I]", "discrete label": "low end"}
{"binder": "RNDEELNKLLGGV [Unmod H2A variant R N D E E L N K L L G G V]", "discrete label": "low end"}
{"binder": "RAKAKTRSSRAGL [Unmod H2A variant R A K A K T R S S R A G L]", "discrete label": "high end"}
{"binder": "RAKAKSRSSRAGL [Unmod H2A variant R A K A K S R S S R A G L]", "discrete label": "middle"}
{"binder": "QGGKARAKAKSRS [Unmod H2A variant Q G G K A R A K A K S R S]", "discrete label": "low end"}
{"binder": "LNKLLGKVTIAQG [Unmod H2A variant L N K L L G K V T I A Q G]", "discrete label": "high end"}
{"binder": "YLTAEILELAGNA [Unmod H2A variant Y L T A E I L E L A G N A]", "discrete label": "low end"}
{"binder": "RNDEELNKLLGRV [Unmod H2A variant R N D E E L N K L L G R V]", "discrete label": "middle"}
{"binder": "KGNYSERVGAGAP [Unmod H2A variant K G N Y S E R V G A G A P]", "discrete label": "middle"}
{"binder": "RSSRAGLQFPVGR [Unmod H2A variant R S S R A G L Q F P V G R]", "discrete label": "high end"}
{"binder": "MAAVLEYLTAEIL [Unmod H2A variant M A A V L E Y L T A E I L]", "discrete label": "low end"}
{"binder": "QGGKARAKAKTRS [Unmod H2A variant Q G G K A R A K A K T R S]", "discrete label": "low end"}
{"binder": "AGLQFPVGRIHRL [Unmod H2A variant A G L Q F P V G R I H R L]", "discrete label": "high end"}
{"binder": "RNDEELNKLLGKV [Unmod H2A variant R N D E E L N K L L G K V]", "discrete label": "middle"}
